Test system: OVCAR-5 ovarian
experiment description: NCI-60 one-dose screen, 48 h
run conditions: 10 µM unless noted
Experimental: Growth inhibition of the OVCAR-5 human tumor cell line is measured as a screen for anti-cancer activity. Cells are grown in 96 well plates and exposed to the test compound for 48 hours. Compounds are tested at a single concentration, which is 10^-5 M for most compounds. The reported endpoint is percent growth (GI% or GIPRCNT), where numbers from 0 - 100% represent growth inhibition, and numbers from -100% - 0 represent cell death. For example, a value of 40 represents 60% growth inhibition. […]
This is part of a sample that, as a whole, favours compounds with a hit. Of some 83,000 tested, about 20% had one in any assay. Calls of active or inactive are those of the source. The calls were made as follows: active = growth percent below 10; inactive = the rest.
Please state which outcome applies, choosing from true for active, false for inactive

Exam item: # lookup: test call for Cc1c2cnccc2c(C)c2c1c1cc(C(=O)O)ccc1n2C
Marked response: true

Exam item: # lookup: test call for CCOC(=O)/C(=C\c1ccccc1Cl)P(=O)(OCC)OCC
Marked response: false

Exam item: # lookup: test call for COc1cc(OCc2cccc(-c3ccccc3)c2C)cc(OC)c1CN1CCCCC1C(=O)NCCOCCOCCN (stereo not given)
Marked response: false

Exam item: # lookup: test call for CC1OC(C(=O)N2CCN(CCO)CC2)CC1COC1CCCCC1 (stereo not given)
Marked response: false

Exam item: # lookup: test call for COc1cc(CNC(=O)CCCC/C=C/C(C)C)ccc1OCc1cn(-c2ccc(C(F)(F)F)cc2)nn1
Marked response: false

* * *

Tested on: SK-MEL-28 melanoma
experiment description: NCI-60 one-dose screen, 48 h
run conditions: 10 µM unless noted
About 83,000 compounds went through this panel and 20% of them were active in at least one assay; those are over-represented in the sample as a whole. Activity calls are given as the source filed them. How the source made its calls: active means growth percent below 10; inactive means the rest.
Please state which outcome applies, choosing from active, inactive

Exam item: # lookup: test call for O=C1C(c2c(O)[nH]c3ncccc23)=Nc2ccccc21
Marked response: inactive

Exam item: # lookup: test call for Nc1ncc(-c2ccc3ncnc(N4CCc5cc(F)c(Cl)cc54)c3c2)cc1C(F)(F)F
Marked response: inactive

Exam item: # lookup: test call for COc1ccccc1/C=C/C1=C(C)CCC(c2ccccc2OC)C1C (stereo not given)
Marked response: inactive

Exam item: # lookup: test call for COc1cc(/C=C/c2cc(/C=C/c3ccc(O)c(OC)c3)n(C(=O)Nc3ccc(C)cc3C)n2)ccc1O
Marked response: active

Exam item: # lookup: test call for CSc1nc(CC(C)C)c(C#N)c(=O)n1C
Marked response: inactive

* * *

Test system: KM12 colon
experiment description: NCI-60 one-dose screen, 48 h (100 = growth as untreated, 0 = no growth, -100 = all killed)
run conditions: 10 µM unless noted
Method: Growth inhibition of the KM12 human tumor cell line is measured as a screen for anti-cancer activity. Cells are grown in 96 well plates and exposed to the test compound for 48 hours. Compounds are tested at a single concentration, which is 10^-5 M for most compounds. The reported endpoint is percent growth (GI% or GIPRCNT), where numbers from 0 - 100% represent growth inhibition, and numbers from -100% - 0 represent cell death. For example, a value of 40 represents 60% growth inhibition. […]
This is part of a sample that, as a whole, favours compounds with a hit. Of some 83,000 tested, about 20% had one in any assay. The source made the active and inactive calls. Rule for the calls: active = growth percent below 10; inactive = the rest.
result type: growth

Exam item: Item CCOC(=O)c1c(NC(=S)Nc2ccc([N+](=O)[O-])cc2)sc2c1CCCCC2 has what recorded growth?
Marked response: 72.2% (inactive)

Exam item: Item CN1C(=O)N(C)C2C1NN=c1s/c(=C\c3ccc(F)cc3)c(=O)n12 (stereo not given) has what recorded growth?
Marked response: 18.9% (inactive)

Exam item: Item COc1cc(CNC(=O)CCCC/C=C/C(C)C)ccc1OCc1cn(-c2cccc([N+](=O)[O-])c2)nn1 has what recorded growth?
Marked response: 91.2% (inactive)

Exam item: Item Cc1nc2ccccc2c(/C=C/c2ccc(Br)cc2)c1C(=O)/C=C/c1ccccc1 has what recorded growth?
Marked response: 7.65% (active)

Exam item: Item COC(=O)CCc1c(/C=C2\N=C(c3ccc[nH]3)C=C2OC)[nH]c(C)c1C(=O)OCc1ccccc1 has what recorded growth?
Marked response: 10.6% (inactive)

Exam item: Item COc1ccc(/C=C2/CCc3cc4ccc(OC)cc4[o+]c32)c(O)c1 has what recorded growth?
Marked response: 45.4% (inactive)

Exam item: Item Nc1ncc(-c2ccc3ncnc(N4CCc5cc(F)c(Cl)cc54)c3c2)cc1C=O has what recorded growth?
Marked response: 39.2% (inactive)

Exam item: Item CCCCCCCCCCCCCC[n+]1ccc2c(C)c3c(c(C)c2c1)c1cc(O)ccc1n3CC has what recorded growth?
Marked response: -67.3% (active)

Exam item: Item Oc1c(Cl)cc(Cl)c2ccc(CN3CCNCC3)nc12 has what recorded growth?
Marked response: 49.6% (inactive)

Exam item: Item CCOC(=O)CSc1nc2sc3c(c2c(=O)n1-c1ccccc1)CCCCC3 has what recorded growth?
Marked response: 104% (inactive)
